Exercise: for every item that follows, state its recorded pIC50.
- System: HT-29
- test-description: Antiproliferative activity against human HT-29 cells assessed as inhibition of cell growth
- Format: functional, cell-based
// pIC50 is dimensionless: -log10 of concentration (M)

So what does the record say about pIC50 for "C/C=C1/CN2CC[C@]34C(=C(CN5c6ccccc6[C@@]67CCN8CCC[C@]9(CC[C@]56[C@H](C(=O)OC)C9)[C@H]87)[C@H]1C[C@H]23)Nc1ccccc14" ? 5.89

So what does the record say about pIC50 for "COC(=O)C1=CN2CCc3c([nH]c4ccccc34)[C@@H]2C[C@@H]1C1=CO[C@@H]([C@H]2[C@@H]3CCN4CC[C@@]5(C(=C3C(=O)OC)Nc3ccccc35)[C@@H]24)C[C@@H]1C" ? 8.69

###

- test-description: Antiproliferative activity against vincristine-resistant human KB cells assessed as inhibition of cell growth
- Format: functional, cell-based
experimental-endpoint: IC50 (µM)
State just the number; it will be interpreted in µM.

So what does the record say about IC50 for "C/C=C1/CN2CC[C@]34C(=C(CN5c6ccccc6[C@@]67CCN8CCC[C@]9(CC[C@]56[C@H](C(=O)OC)C9)[C@H]87)[C@H]1C[C@H]23)Nc1ccccc14" ? 1.3

So what does the record say about IC50 for "CC[C@H]1[C@@H]2CCN3CC[C@@]4(C5=C2C[C@@]2(CN5c5ccccc54)C4=Nc5ccccc5[C@]45CCN4CC[C@H]2[C@H](CC)[C@@H]45)[C@@H]13" ? 0.57

So what does the record say about IC50 for "C/C=C1/CN2[C@H]3Cc4c([nH]c5ccc(O)c([C@H]6Cn7c8c(c9ccccc97)CCN7CC=C[C@@]6(CC)[C@H]87)c45)[C@@H]2C[C@@H]1[C@]3(CO)C(=O)OC" ? 0.57

###

- Test system: MCF7
- test-description: Antiproliferative activity against human MCF7 cells assessed as inhibition of cell growth incubated for 48 hrs by MTT assay
- Format: functional, cell-based
- test-settings: MCF7, 48 h
Exercise: for every item that follows, state its recorded pIC50.
// pIC50 is dimensionless: -log10 of concentration (M)

So what does the record say about pIC50 for CC[C@@]12C=C(C(=O)OC)C3Nc4cc(OC)c(O)cc4[C@@]34CCN([C@@H]3c5cc6c(cc5O[C@@H]3[C@H]1O)NC1=C(C(=O)OC)C[C@]3(CC)[C@@H]5O[C@@H]5CN5CC[C@@]16[C@@H]53)[C@@H]24 (stereo not given in full) ? 5.85

So what does the record say about pIC50 for "C/C=C1/CN2COC[C@]3(C(=O)OC)[C@@H]1C[C@@H](c1cccc4c5c([nH]c14)[C@]1(C(=O)OC)C[C@@H]4C[C@H](CC)[C@@H]1N(CC5)[C@@H]4CC(C)=O)c1[nH]c4ccccc4c1C[C@]23C" ? 5.54

So what does the record say about pIC50 for "CC[C@]12CCCN3CCc4c(n(c5ccccc45)[C@@H](c4cc5c(cc4OC)NC4=C(C(=O)OC)C[C@]6(CC)CCCN7CC[C@@]45[C@@H]76)C1)[C@@H]32" ? 5.49

So what does the record say about pIC50 for C/C=C1/CN(C)[C@H]2Cc3c([nH]c4ccccc34)[C@H](c3cc4[nH]c5c(c4cc3OC)CCN3C[C@@H]4C[C@H](CC)[C@H]3[C@@]5(C(=O)OC)C4)C[C@@H]1C2C(=O)OC (stereo not given in full) ? 6.00

So what does the record say about pIC50 for "CC[C@]12C=CCN3CC[C@]4(C(=C(C(=O)OC)C1)Nc1cc5c(cc14)[C@@H]1[C@H](O5)[C@@H](O)[C@@]4(CC)CC(C(=O)OC)=C5Nc6c(ccc(OC)c6OC)[C@@]56CCN1[C@@H]46)[C@@H]32" ? 5.85
